The reported numbers originate from ChEMBL document CHEMBL1122451.

# Tested on: Mus musculus
# procedure_details: Anticonvulsant activity in mice using sc Met seizure test.
# Type: functional
Each record here notes measured ED50.
readout_type: ED50

| chemical_structure | assay_value |
| --- | --- |
| COC(=O)c1c(C)c(C)cc2c(=O)n(-c3ccc(F)cc3)c(C)nc12 | 440 mg/kg |
| Cc1cc2c(=O)n(-c3ccc(F)cc3)c(C)nc2c(C(=O)O)c1C | 440 mg/kg |
| COC(=O)c1c(C)c(C)cc2c(=O)n(-c3cccc(F)c3)c(C)nc12 | 430 mg/kg |
| COC(=O)c1c(C)c(C)cc2c(=O)n(-c3ccccc3C)c(C)nc12 | 600 mg/kg |
